# SYSTEM_UNDER_TEST: Tyrosine-protein kinase Lck (Homo sapiens, UniProt P06239)
# Sequence (P06239 whole entry): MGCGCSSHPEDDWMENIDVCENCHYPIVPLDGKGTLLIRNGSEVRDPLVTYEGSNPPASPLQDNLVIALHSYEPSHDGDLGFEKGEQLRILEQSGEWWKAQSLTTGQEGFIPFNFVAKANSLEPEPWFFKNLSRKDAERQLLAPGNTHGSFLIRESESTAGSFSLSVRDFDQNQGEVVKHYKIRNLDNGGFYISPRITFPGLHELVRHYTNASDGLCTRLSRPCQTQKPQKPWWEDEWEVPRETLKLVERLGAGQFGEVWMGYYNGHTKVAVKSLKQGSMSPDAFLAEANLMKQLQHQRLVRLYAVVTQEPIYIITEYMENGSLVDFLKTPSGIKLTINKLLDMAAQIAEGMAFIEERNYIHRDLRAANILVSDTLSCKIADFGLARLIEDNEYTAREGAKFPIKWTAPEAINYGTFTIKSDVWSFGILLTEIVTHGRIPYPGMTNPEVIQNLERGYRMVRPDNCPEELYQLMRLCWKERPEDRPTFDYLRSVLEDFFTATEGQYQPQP
# ASSAY_DETAILS: Inhibition of His-tagged full length human recombinant LCK expressed in baculovirus using Fluorescein-Poly GT as substrate
OBSERVED_PROPERTY: IC50 (nM)

>>> value_measured("COC(=O)c1cc2cc(NCc3cc(NC(=O)c4cc(-n5cnc(C)c5)cc(C(F)(F)F)c4)ccc3C)cnc2[nH]1")
69

====

# SYSTEM_UNDER_TEST: Vascular endothelial growth factor receptor 2 (Homo sapiens)
# ASSAY_DETAILS: Inhibition of full length His-tagged human recombinant VEGFR2 expressed in baculovirus using Fluorescein-Poly GT as substrate at 100 nM
Would you mind labelling by inhibition? At or over 60% is true (1), under is false (0).

>>> label("COC(=O)c1cc2cc(COc3cc(NC(=O)c4ccc(CN5CCN(C)CC5)cc4)ccc3C)cnc2[nH]1")
"true (1)"
>>> label("COC(=O)c1cc2cc(NCc3cc(NC(=O)c4cccc(C(C)C)c4)ccc3C)cnc2[nH]1")
"false (0)"
>>> label("COC(=O)c1cc2cc(NC(=O)c3cc(NC(=O)c4ccc(CN5CCC(N(C)C)C5)c(C(F)(F)F)c4)ccc3C)cnc2[nH]1 (configuration not stated)")
"true (1)"
>>> label("CC(=O)c1cc2cc(CCc3cc(NC(=O)c4ccc(CN5CCC(N(C)C)C5)c(C(F)(F)F)c4)ccc3C)cnc2[nH]1 (configuration not stated)")
"true (1)"
>>> label("COC(=O)c1cc2cc(NCc3cc(NC(=O)c4ccc(C)c(C(F)(F)F)c4)ccc3C)cnc2[nH]1")
"false (0)"
>>> label("CC(=O)c1cc2cc(NCc3cc(NC(=O)c4cc(-n5cnc(C)c5)cc(C(F)(F)F)c4)ccc3C)cnc2[nH]1")
"false (0)"
>>> label("COC(=O)c1cc2cc(/C=C/c3cc(NC(=O)c4ccc(CN5CCN(C)CC5)cc4)ccc3C)cnc2[nH]1")
"false (0)"
>>> label("CNC(=O)c1cc2cc(NCc3cc(NC(=O)c4ccc(CN5CCC(N(C)C)C5)c(C(F)(F)F)c4)ccc3C)cnc2[nH]1 (configuration not stated)")
"true (1)"
>>> label("COC(=O)c1cc2cc(NCc3cc(NC(=O)c4ccc(Cl)c(C(F)(F)F)c4)ccc3C)cnc2[nH]1")
"false (0)"
>>> label("COC(=O)c1cc2cc(NCc3cc(NC(=O)c4cc(N(C)C)cc(C(F)(F)F)c4)ccc3C)cnc2[nH]1")
"false (0)"
>>> label("COC(=O)c1cc2cc(NCc3cc(NC(=O)c4cccc(C)c4)ccc3C)cnc2[nH]1")
"true (1)"
>>> label("COC(=O)c1cc2cc(NCc3cc(NC(=O)c4cccc(OC(F)(F)F)c4)ccc3C)cnc2[nH]1")
"false (0)"
>>> label("COC(=O)c1cc2cc(NCc3cc(NC(=O)Cc4ccccc4Br)ccc3C)cnc2[nH]1")
"false (0)"
>>> label("CC(=O)c1cc2cc(CCc3cc(NC(=O)c4ccc(CN5CCN(C)CC5)cc4)ccc3C)cnc2[nH]1")
"true (1)"
>>> label("COC(=O)c1cc2cc(NCc3cc(NC(=O)c4cc[nH]c4)ccc3C)cnc2[nH]1")
"false (0)"
>>> label("COC(=O)c1cc2cc(NCc3cc(NC(=O)c4ccc5nn[nH]c5c4)ccc3C)cnc2[nH]1")
"false (0)"
>>> label("Cc1cn(-c2cc(C(=O)Nc3ccc(C)c(CNc4cnc5[nH]c(C(=O)O)cc5c4)c3)cc(C(F)(F)F)c2)cn1")
"false (0)"
>>> label("COC(=O)c1cc2cc(NCc3cc(NC(=O)Cc4cccc(C(F)(F)F)c4)ccc3C)cnc2[nH]1")
"false (0)"
>>> label("COC(=O)c1cc2cc(NCc3cc(NC(=O)c4ccc(-c5csc(C)n5)cc4)ccc3C)cnc2[nH]1")
"false (0)"
>>> label("COC(=O)c1cc2cc(NCc3cc(NC(=O)c4ccc(C(F)(F)F)nc4)ccc3C)cnc2[nH]1")
"false (0)"
>>> label("Cc1ccc(NC(=O)c2ccc(CN3CCC(N(C)C)C3)c(C(F)(F)F)c2)cc1CNc1cnc2[nH]c(C(=O)O)cc2c1 (configuration not stated)")
"true (1)"
>>> label("COC(=O)c1cc2cc(COc3cc(NC(=O)c4ccc(CN5CCC(N(C)C)C5)c(C(F)(F)F)c4)ccc3C)cnc2[nH]1 (configuration not stated)")
"true (1)"
>>> label("COC(=O)c1cc2cc(NC(=O)c3cc(NC(=O)c4ccc(CN5CCN(C)CC5)cc4)ccc3C)cnc2[nH]1")
"true (1)"
>>> label("COC(=O)c1cc2cc(CCc3cc(NC(=O)c4ccc(CN5CCC(N(C)C)C5)c(C(F)(F)F)c4)ccc3C)cnc2[nH]1 (configuration not stated)")
"true (1)"
>>> label("COC(=O)c1cc2cc(NCc3cc(NC(=O)c4cncc(C(F)(F)F)c4)ccc3C)cnc2[nH]1")
"true (1)"

====

# SYSTEM_UNDER_TEST: UniProtKB P12931
# Sequence (P12931 2-536 limits assumed): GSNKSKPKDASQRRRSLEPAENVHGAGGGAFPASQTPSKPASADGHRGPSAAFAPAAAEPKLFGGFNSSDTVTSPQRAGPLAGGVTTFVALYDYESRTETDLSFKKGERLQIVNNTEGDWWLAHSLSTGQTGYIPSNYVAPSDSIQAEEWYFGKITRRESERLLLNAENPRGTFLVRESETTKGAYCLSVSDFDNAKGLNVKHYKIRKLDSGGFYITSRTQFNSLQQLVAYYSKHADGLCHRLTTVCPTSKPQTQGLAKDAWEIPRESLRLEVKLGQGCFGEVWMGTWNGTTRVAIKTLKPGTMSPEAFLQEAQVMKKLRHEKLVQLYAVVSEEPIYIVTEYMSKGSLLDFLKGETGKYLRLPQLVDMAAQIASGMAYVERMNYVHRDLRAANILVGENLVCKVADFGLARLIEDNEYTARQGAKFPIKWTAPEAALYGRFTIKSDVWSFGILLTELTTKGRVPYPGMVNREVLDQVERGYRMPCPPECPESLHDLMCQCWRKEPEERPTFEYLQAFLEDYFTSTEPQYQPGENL
# ASSAY_DETAILS: Inhibition of full length His-tagged human recombinant cSRC expressed in baculovirus using Fluorescein-Poly GT as substrate at 100 nM
The molecules listed here are annotated with their inhibition.
OBSERVED_PROPERTY: inhibition (%)

>>> value_measured("COC(=O)c1cc2cc(NCc3cc(NC(=O)c4cncc(C(F)(F)F)c4)ccc3C)cnc2[nH]1")
101
>>> value_measured("CC(=O)c1cc2cc(CCc3cc(NC(=O)c4ccc(CN5CCC(N(C)C)C5)c(C(F)(F)F)c4)ccc3C)cnc2[nH]1 (stereo not drawn)")
97
>>> value_measured("COC(=O)c1cc2cc(COc3cc(NC(=O)c4ccc(CN5CCN(C)CC5)cc4)ccc3C)cnc2[nH]1")
58
>>> value_measured("Cc1cn(-c2cc(C(=O)Nc3ccc(C)c(CNc4cnc5[nH]c(C(=O)O)cc5c4)c3)cc(C(F)(F)F)c2)cn1")
69
>>> value_measured("COC(=O)c1cc2cc(NCc3cc(NC(=O)c4ccc(C)c(C(F)(F)F)c4)ccc3C)cnc2[nH]1")
74
>>> value_measured("COC(=O)c1cc2cc(NC(=O)c3cc(NC(=O)c4ccc(CN5CCC(N(C)C)C5)c(C(F)(F)F)c4)ccc3C)cnc2[nH]1 (stereo not drawn)")
100
>>> value_measured("CC(=O)c1cc2cc(NCc3cc(NC(=O)c4ccc(CN5CCC(N(C)C)C5)c(C(F)(F)F)c4)ccc3C)cnc2[nH]1 (stereo not drawn)")
91
>>> value_measured("COC(=O)c1cc2cc(NC(=O)c3cc(NC(=O)c4ccc(CN5CCN(C)CC5)cc4)ccc3C)cnc2[nH]1")
94
>>> value_measured("COC(=O)c1cc2cc(NCc3cc(NC(=O)c4cccc(OC(F)(F)F)c4)ccc3C)cnc2[nH]1")
105
>>> value_measured("COC(=O)c1cc2cc(NCc3cc(NC(=O)c4ccc(-c5csc(C)n5)cc4)ccc3C)cnc2[nH]1")
72
>>> value_measured("COC(=O)c1cc2cc(NCc3cc(NC(=O)c4ccc(Cl)c(C(F)(F)F)c4)ccc3C)cnc2[nH]1")
86
>>> value_measured("COC(=O)c1cc2cc(NCc3cc(NC(=O)c4cccc(C(C)C)c4)ccc3C)cnc2[nH]1")
99
>>> value_measured("COC(=O)c1cc2cc(NCc3cc(NC(=O)c4cncc(C)c4)ccc3C)cnc2[nH]1")
89
>>> value_measured("COC(=O)c1cc2cc(/C=C/c3cc(NC(=O)c4ccc(CN5CCN(C)CC5)cc4)ccc3C)cnc2[nH]1")
40
>>> value_measured("COC(=O)c1cc2cc(NCc3cc(NC(=O)c4ccc(C(F)(F)F)nc4)ccc3C)cnc2[nH]1")
39
>>> value_measured("COC(=O)c1cc2cc(CNc3cc(NC(=O)c4ccc(CN5CCN(C)CC5)cc4)ccc3C)cnc2[nH]1")
47
>>> value_measured("COC(=O)c1cc2cc(/C=C/c3cc(NC(=O)c4ccc(CN5CCC(N(C)C)C5)c(C(F)(F)F)c4)ccc3C)cnc2[nH]1 (stereo not drawn)")
55
>>> value_measured("COC(=O)c1cc2cc(NCc3cc(NC(=O)c4cccc(Br)c4)ccc3C)cnc2[nH]1")
85
>>> value_measured("CC(=O)c1cc2cc(NCc3cc(NC(=O)c4cc(-n5cnc(C)c5)cc(C(F)(F)F)c4)ccc3C)cnc2[nH]1")
59
>>> value_measured("CNC(=O)c1cc2cc(NCc3cc(NC(=O)c4ccc(CN5CCC(N(C)C)C5)c(C(F)(F)F)c4)ccc3C)cnc2[nH]1 (stereo not drawn)")
99
>>> value_measured("COC(=O)c1cc2cc(NCc3cc(NC(=O)c4cccc(C)c4)ccc3C)cnc2[nH]1")
84
>>> value_measured("COC(=O)c1cc2cc(CCc3cc(NC(=O)c4ccc(CN5CCN(C)CC5)cc4)ccc3C)cnc2[nH]1")
91
>>> value_measured("COC(=O)c1cc2cc(NCc3cc(NC(=O)c4ccc5nn[nH]c5c4)ccc3C)cnc2[nH]1")
34
>>> value_measured("COC(=O)c1cc2cc(NCc3cc(NC(=O)c4ccc5[nH]ccc5c4)ccc3C)cnc2[nH]1")
59
>>> value_measured("COC(=O)c1cc2cc(COc3cc(NC(=O)c4ccc(CN5CCC(N(C)C)C5)c(C(F)(F)F)c4)ccc3C)cnc2[nH]1 (stereo not drawn)")
87
>>> value_measured("COC(=O)c1cc2cc(NCc3cc(NC(=O)c4cccc(C(F)(F)F)c4)ccc3C)cnc2[nH]1")
108
>>> value_measured("Cc1ccc(NC(=O)c2ccc(CN3CCC(N(C)C)C3)c(C(F)(F)F)c2)cc1CNc1cnc2[nH]c(C(=O)O)cc2c1 (stereo not drawn)")
86
>>> value_measured("COC(=O)c1cc2cc(NCc3cc(NC(=O)c4ccc5c(c4)OCO5)ccc3C)cnc2[nH]1")
68
>>> value_measured("Cc1ccc(NC(=O)c2ccc(CN3CCN(C)CC3)cc2)cc1CNc1cnc2[nH]c(C(=O)O)cc2c1")
75
>>> value_measured("COC(=O)c1cc2cc(NCc3cc(NC(=O)c4ccc(CN5CCN(C)CC5)cc4)ccc3C)cnc2[nH]1")
93
>>> value_measured("COC(=O)c1cc2cc(NCc3cc(NC(=O)c4cc(-n5cnc(C)c5)cc(C(F)(F)F)c4)ccc3C)cnc2[nH]1")
49
>>> value_measured("COC(=O)c1cc2cc(NCc3cc(NC(=O)c4ccc(CN5CCC(N(C)C)C5)c(C(F)(F)F)c4)ccc3C)cnc2[nH]1 (stereo not drawn)")
96
>>> value_measured("COC(=O)c1cc2cc(NCc3cc(NC(=O)Cc4cccc(C(F)(F)F)c4)ccc3C)cnc2[nH]1")
58
